Attribution: PubChem BioAssay AID1645865

biological target: Ubiquitin carboxyl-terminal hydrolase 30 (Homo sapiens) (UniProt Q70CQ3); test: inhibitors of ubiquitin-specific protease 30 deubiquitylating enzyme, concentration dependence, in vitro biochemical, validation of primary hits (AID 1645865); conditions: purified USP30, Ub-rhodamine cleavage, fluorescence, 2 h
Sequence (Q70CQ3 whole entry, looked up): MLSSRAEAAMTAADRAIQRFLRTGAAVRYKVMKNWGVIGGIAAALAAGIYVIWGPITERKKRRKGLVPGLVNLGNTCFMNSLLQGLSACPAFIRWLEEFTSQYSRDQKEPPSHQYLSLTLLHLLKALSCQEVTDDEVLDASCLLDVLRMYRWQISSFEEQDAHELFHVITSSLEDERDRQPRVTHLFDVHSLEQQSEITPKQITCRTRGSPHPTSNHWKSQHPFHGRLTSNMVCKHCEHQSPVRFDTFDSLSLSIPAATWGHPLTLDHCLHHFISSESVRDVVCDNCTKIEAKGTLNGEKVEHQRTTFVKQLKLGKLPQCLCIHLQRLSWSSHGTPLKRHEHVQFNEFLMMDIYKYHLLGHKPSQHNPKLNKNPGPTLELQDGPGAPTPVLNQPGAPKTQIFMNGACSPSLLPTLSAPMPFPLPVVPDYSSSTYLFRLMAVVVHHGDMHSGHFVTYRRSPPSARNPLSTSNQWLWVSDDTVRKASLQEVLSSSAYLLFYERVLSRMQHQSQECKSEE
Activity calls are given as the source filed them.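 The calls were made as follows: active = maximal inhibition of the USP30 enzyme reaching 30% or more across the dose series; inactive = the rest.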
Your reply should match one of these outcome classes. YES for active, NO for inactive

- compound: "O=c1[nH]c(-c2ccccn2)nc2c1CCN(Cc1cnn(-c3ccccc3)c1)C2"
  label-value: "NO"
- compound: "Cc1nc2nc(SCc3nc4ccccc4n3C)[nH]c2cc1Br"
  label-value: "YES"
- compound: "COc1ccc2c(c1)CCc1c-2n[nH]c1C(=O)Nc1cc(C)on1"
  label-value: "YES"
- compound: "O=C(c1cc2ccccc2o1)N1CC=C(c2ccccc2)CC1"
  label-value: "NO"
- compound: "CCOc1cc(C2C3=C(CC(C)(C)CC3=O)Nc3onc(C)c32)ccc1O (configuration not stated)"
  label-value: "YES"
- compound: "COc1cccc(NC(=O)Nc2nccn(-c3ccc(F)cc3)c2=O)c1"
  label-value: "YES"
- compound: "Cc1nn(-c2cc(N3CCOCC3)ncn2)c(C)c1CCC(=O)Nc1ccc(C(C)C)cc1"
  label-value: "YES"
- compound: "CC(C)c1ccc(C(C(=O)NC2CCCCC2)N(C(=O)c2cnccn2)c2cccc(F)c2)cc1 (configuration not stated)"
  label-value: "YES"
- compound: "CC(=O)NCc1nc(-c2ccc3c(c2)nc(C)c(=O)n3C2CCCC2)no1"
  label-value: "NO"
- compound: "Cc1cccc(N2CCN(C(=O)c3nnn(-c4ccc(F)cc4)n3)CC2)c1"
  label-value: "NO"

// return assay outcome for Cc1ccc(Cn2nnc(C(=O)NCc3ccco3)c2-n2cccc2)cc1
NO

How did this test come out for Cc1ccc(-n2c(=O)[nH]c3c(C(N)=O)nc(-c4cccnc4)nc32)cc1 ?
YES

Please let me know the test result on file for Cc1ccc(C(C)C)cc1OCCOCCN1CCNCC1 .
NO

Short answer needed: outcome of this test for COCCCNC(=O)c1ccc(Cn2c(=O)c3ccccc3n(CC(=O)Nc3ccc(OC)cc3)c2=O)cc1 ?
YES

Could you kindly confirm the outcome this assay logged for Cc1ccc(CNC(=O)CCCn2c(=O)c3sccc3n(CC(=O)Nc3cc(Cl)ccc3C)c2=O)cc1 ?
YES

How was CC(=O)c1cc2c(=O)c3c(C(=O)O)c(O)c(O)cc3oc2c(C(C)=O)c1-c1coc2cc(O)c(O)c(C(=O)O)c2c1=O classified in this test?
YES

Call for entry O=C(c1cn(-c2cccc(F)c2)nn1)N1CCc2ccccc2C1 :
YES

What did this assay record as the result for Cc1cc(C2CC(=O)Nc3c2c(C)nn3-c2nc3ccccc3[nH]2)c(C)s1 (configuration not stated) ?
YES

What did the test return for FC(F)(F)c1cccc(N2CCN(c3nc4ccccc4n4nnnc34)CC2)c1 ?
NO
